# tested.target: human KDR (VEGFR2) on cells (human, UniProt P35968 20-1356); further: test concentration or dose not given here
# Sequence (P35968 20-1356): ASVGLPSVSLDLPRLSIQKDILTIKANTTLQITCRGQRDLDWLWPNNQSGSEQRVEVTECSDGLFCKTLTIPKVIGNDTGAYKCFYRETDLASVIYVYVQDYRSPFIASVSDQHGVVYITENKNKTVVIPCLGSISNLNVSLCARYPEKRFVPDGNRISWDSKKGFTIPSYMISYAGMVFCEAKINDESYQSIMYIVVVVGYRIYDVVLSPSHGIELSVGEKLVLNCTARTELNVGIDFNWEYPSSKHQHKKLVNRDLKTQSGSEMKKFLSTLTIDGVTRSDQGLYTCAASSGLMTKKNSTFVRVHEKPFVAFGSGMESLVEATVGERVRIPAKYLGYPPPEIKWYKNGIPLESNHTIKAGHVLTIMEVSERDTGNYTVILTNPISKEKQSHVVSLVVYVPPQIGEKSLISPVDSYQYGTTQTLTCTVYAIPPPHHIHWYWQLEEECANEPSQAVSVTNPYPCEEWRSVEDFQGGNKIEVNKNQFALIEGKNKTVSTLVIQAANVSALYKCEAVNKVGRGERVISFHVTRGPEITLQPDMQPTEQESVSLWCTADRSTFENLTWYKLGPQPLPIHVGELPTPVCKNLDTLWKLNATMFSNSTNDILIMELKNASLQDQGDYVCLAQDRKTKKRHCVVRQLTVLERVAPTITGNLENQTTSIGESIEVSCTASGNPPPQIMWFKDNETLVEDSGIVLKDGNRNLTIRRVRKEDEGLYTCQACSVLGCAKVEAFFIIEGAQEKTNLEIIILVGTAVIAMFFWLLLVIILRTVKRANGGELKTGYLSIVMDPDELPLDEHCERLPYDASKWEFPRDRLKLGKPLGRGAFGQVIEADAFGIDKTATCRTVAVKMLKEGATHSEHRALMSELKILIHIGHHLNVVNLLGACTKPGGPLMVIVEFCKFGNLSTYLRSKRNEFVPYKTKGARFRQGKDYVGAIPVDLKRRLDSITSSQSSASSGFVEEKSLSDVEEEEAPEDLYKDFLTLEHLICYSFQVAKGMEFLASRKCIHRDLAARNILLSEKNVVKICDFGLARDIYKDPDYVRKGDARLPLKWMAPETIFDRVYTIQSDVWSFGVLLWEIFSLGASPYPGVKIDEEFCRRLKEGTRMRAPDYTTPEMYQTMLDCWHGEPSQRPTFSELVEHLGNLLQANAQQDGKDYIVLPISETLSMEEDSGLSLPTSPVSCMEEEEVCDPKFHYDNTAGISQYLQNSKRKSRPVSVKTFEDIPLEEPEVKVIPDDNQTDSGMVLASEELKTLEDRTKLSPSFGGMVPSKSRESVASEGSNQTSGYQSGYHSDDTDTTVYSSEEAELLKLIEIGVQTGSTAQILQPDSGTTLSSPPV
# experiment.description: cell-based or functional assay
Here, each record is paired with measured % Inhibition of VEGF165-mediated pTyr Activity, n = 1 data.
readout.type: % Inhibition of VEGF165-mediated pTyr Activity, n = 1 (%)

[[record]]
binder = "anti-KDR monoclonal antibody 24C9 (antibody, V domains shown, Fully human mAb from XenoMouse (IgG2 or IgG4 strain); hybridoma supernatant) VH: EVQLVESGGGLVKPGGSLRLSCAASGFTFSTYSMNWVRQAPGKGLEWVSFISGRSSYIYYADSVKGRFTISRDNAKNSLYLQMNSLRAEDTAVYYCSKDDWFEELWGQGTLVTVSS VL: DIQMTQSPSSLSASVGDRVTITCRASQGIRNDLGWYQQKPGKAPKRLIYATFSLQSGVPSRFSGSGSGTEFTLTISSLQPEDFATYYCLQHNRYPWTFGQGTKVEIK"
value_units = "%"
measured_value = 55

[[record]]
binder = "anti-KDR monoclonal antibody 29A3 (antibody, V domains shown, Fully human mAb from XenoMouse (IgG2 or IgG4 strain); hybridoma supernatant) VH: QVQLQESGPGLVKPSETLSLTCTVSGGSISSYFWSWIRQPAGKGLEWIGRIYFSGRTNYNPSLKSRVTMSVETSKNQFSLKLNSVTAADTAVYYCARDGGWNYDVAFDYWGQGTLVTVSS VL: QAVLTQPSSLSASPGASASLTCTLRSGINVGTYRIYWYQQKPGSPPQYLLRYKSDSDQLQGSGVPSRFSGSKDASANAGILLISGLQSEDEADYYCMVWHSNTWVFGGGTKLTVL"
value_units = "%"
measured_value = 92

[[record]]
binder = "anti-KDR monoclonal antibody 30D7 (antibody, V domains shown, Fully human mAb from XenoMouse (IgG2 or IgG4 strain); hybridoma supernatant) VH: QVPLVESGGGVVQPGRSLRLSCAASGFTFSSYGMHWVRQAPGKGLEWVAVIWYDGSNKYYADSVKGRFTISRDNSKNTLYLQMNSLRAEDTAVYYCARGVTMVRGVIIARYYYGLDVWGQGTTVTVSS VL: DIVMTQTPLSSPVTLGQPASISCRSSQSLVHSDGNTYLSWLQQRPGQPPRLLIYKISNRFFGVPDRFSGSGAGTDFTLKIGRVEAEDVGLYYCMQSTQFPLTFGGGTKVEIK"
value_units = "%"
measured_value = 99

[[record]]
binder = "anti-KDR monoclonal antibody 22B8 (antibody, V domains shown, Fully human mAb from XenoMouse (IgG2 or IgG4 strain); hybridoma supernatant) VH: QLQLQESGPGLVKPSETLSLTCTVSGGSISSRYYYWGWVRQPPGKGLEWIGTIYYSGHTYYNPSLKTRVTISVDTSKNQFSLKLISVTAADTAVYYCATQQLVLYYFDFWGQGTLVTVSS VL: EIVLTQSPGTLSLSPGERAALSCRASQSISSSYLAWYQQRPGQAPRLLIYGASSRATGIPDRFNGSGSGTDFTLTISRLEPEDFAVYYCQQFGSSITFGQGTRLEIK"
value_units = "%"
measured_value = 82

[[record]]
binder = "anti-KDR monoclonal antibody 32F4 (antibody, V domains shown, Fully human mAb from XenoMouse (IgG2 or IgG4 strain); hybridoma supernatant) VH: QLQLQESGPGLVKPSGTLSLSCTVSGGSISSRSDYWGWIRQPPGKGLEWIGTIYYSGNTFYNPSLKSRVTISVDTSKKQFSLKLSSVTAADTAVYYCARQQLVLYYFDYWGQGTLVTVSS VL: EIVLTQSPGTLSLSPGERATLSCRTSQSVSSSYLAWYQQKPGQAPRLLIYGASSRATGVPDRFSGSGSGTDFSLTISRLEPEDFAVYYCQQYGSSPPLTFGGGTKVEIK"
value_units = "%"
measured_value = 88

